STUDY SYSTEM: HSV-1 DNA polymerase (Human herpesvirus 1, UniProt P04293)
Sequence (P04293 whole entry): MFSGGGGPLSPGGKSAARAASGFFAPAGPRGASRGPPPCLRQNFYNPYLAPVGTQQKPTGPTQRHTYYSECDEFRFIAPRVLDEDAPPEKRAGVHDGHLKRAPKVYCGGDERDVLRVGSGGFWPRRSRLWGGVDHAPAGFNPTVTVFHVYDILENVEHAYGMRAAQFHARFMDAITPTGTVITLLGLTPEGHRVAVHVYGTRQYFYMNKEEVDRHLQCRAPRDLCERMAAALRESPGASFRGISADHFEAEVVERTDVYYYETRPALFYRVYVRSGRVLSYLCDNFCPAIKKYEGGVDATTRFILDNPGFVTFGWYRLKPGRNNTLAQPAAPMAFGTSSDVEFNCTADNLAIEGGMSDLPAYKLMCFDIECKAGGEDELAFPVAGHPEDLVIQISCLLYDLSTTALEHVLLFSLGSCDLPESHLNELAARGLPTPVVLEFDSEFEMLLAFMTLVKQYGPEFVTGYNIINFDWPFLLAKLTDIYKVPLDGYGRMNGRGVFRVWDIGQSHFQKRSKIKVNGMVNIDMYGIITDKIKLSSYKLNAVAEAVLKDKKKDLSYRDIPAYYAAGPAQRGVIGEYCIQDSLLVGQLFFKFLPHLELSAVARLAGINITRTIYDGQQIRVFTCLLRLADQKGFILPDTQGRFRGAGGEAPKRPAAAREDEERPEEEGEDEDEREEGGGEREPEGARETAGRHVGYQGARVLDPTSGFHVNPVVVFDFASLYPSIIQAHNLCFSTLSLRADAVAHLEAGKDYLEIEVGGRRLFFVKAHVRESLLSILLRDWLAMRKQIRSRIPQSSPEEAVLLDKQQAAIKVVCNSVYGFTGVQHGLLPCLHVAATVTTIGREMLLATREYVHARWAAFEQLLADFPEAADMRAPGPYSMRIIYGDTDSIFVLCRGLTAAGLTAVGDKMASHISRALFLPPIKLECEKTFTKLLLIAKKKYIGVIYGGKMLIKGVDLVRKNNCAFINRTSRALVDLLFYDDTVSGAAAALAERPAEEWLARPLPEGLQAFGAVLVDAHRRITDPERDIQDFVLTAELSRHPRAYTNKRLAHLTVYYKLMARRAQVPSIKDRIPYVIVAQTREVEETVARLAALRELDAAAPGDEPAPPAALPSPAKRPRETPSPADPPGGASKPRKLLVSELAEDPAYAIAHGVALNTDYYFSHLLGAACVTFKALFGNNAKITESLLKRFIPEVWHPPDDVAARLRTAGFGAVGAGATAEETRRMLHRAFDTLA
TEST SUMMARY: Enzyme assay with HSV-1 DNA polymerase
Type: biochemical
Please use true for IC50 under 20 µM and false for everything else, ties included.

| COMPOUND | STUDY SYSTEM | QUALITATIVE LABEL |
| --- | --- | --- |
| O=c1[nH]c(=O)n([C@H]2C[C@H](O)[C@@H](COP(=O)(O)OP(=O)(O)OP(=O)(O)O)O2)cc1/C=C/Br [BVDU-TP, reference compound] | HSV-1 DNA polymerase (Human herpesvirus 1, UniProt P04293) | true |
| Nc1ncnc2c1ncn2C/C=C\COC(C(=O)O)P(=O)(O)O (centres unmarked) [Compound 6k] | HSV-1 DNA polymerase (Human herpesvirus 1, UniProt P04293) | true |
| Cc1cn(Cc2cn(CCOC(C(=O)O)P(=O)(O)O)nn2)c(=O)[nH]c1=O (centres unmarked) [Compound 6f] | HSV-1 DNA polymerase (Human herpesvirus 1, UniProt P04293) | false |
| Nc1ccn(C/C=C\COC(C(=O)O)P(=O)(O)O)c(=O)n1 (centres unmarked) [Compound 6m] | HSV-1 DNA polymerase (Human herpesvirus 1, UniProt P04293) | true |
| Cc1cn(CCCCOC(C(=O)O)P(=O)(O)O)c(=O)[nH]c1=O (centres unmarked) [Compound 6h] | HSV-1 DNA polymerase (Human herpesvirus 1, UniProt P04293) | false |

====

STUDY SYSTEM: bacteriophage RB69 DNA polymerase gp43 (WT) (Escherichia phage RB69, UniProt Q38087, D222A/D327A)
Sequence (Q38087 whole entry D222A/D327A): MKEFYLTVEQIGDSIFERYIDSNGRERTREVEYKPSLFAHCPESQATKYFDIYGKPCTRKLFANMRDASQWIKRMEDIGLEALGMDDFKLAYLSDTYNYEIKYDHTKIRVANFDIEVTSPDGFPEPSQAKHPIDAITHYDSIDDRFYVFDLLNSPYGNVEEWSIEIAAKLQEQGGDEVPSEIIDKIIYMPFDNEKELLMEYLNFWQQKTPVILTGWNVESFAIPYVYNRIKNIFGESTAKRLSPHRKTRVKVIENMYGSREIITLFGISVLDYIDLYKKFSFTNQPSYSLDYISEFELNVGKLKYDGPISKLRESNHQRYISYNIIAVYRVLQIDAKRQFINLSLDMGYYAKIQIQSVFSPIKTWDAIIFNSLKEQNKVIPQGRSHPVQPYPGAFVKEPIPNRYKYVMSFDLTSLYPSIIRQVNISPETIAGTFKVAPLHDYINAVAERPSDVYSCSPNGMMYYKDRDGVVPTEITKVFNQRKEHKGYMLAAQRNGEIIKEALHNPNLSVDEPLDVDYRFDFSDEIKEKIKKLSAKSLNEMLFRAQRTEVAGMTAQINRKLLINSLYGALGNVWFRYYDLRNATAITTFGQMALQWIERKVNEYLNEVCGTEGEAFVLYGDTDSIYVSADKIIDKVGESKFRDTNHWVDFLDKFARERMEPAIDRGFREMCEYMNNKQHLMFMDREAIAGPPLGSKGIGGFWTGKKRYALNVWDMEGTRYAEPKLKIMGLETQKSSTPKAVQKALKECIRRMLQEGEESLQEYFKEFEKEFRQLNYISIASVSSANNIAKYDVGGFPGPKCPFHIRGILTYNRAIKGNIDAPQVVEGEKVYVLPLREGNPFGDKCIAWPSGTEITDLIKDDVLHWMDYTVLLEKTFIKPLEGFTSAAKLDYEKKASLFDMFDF
TEST SUMMARY: biochemical

| COMPOUND | IC50 |
| --- | --- |
| Cc1cn(C/C=C\COC(C(=O)O)P(=O)(O)O)c(=O)[nH]c1=O (stereo not shown) | > 100 µM |

====

Here the recorded IC50 is given for each entry.
STUDY SYSTEM: HIV-1 RT (Human immunodeficiency virus type 1 group M subtype B)
TEST SUMMARY: HIV-1 reverse transcriptase assay with homopolymeric template/primers
Type: biochemical
CONDITION LABEL: IC50 HIV-1 RT Poly rI.dC ([3H]dCTP), Poly rI.dC, [3H]dCTP

| COMPOUND | STUDY SYSTEM | IC50 |
| --- | --- | --- |
| Cc1cn(C/C=C\COC(C(=O)O)P(=O)(O)O)c(=O)[nH]c1=O (centres unmarked) [Compound 6g] | HIV-1 RT (Human immunodeficiency virus type 1 group M subtype B) | > 500 µM |
| Nc1ccn(C/C=C\COC(C(=O)O)P(=O)(O)O)c(=O)n1 (centres unmarked) [Compound 6m] | HIV-1 RT (Human immunodeficiency virus type 1 group M subtype B) | 273 µM |
| Nc1nc2c(ncn2C/C=C\COC(C(=O)O)P(=O)(O)O)c(=O)[nH]1 (centres unmarked) [Compound 6l] | HIV-1 RT (Human immunodeficiency virus type 1 group M subtype B) | > 500 µM |
| Nc1ncnc2c1ncn2[C@H]1CC[C@@H](COP(=O)(O)OP(=O)(O)OP(=O)(O)O)O1 [ddATP, reference compound] | HIV-1 RT (Human immunodeficiency virus type 1 group M subtype B) | > 20 µM |
| Nc1ncnc2c1ncn2C/C=C\COC(C(=O)O)P(=O)(O)O (centres unmarked) [Compound 6k] | HIV-1 RT (Human immunodeficiency virus type 1 group M subtype B) | > 500 µM |
